- SYSTEM UNDER TEST: human GLP-1 receptor (GLP-1R) (human, UniProt P43220 24-463); further: reference of the scale not given here
- TEST DETAILS: cell-based or functional assay
VALUE TYPE: hGLP1R cAMP EC50 ratio
Kindly provide the number alone.

• XXEGTFTSDYSIXLDKKAQXEFIXYLIEGGPSSGAPPPS (D-Tyr1, Aib2, αMeL13, (2-[2-(2-Amino-ethoxy)-ethoxy]-acetyl)2-(γ-Glu)-CO-(CH2)18-CO2H on K17, Aib20, D-Glu24, C-terminal NH2) [Example 353] = 0.0231
• YXEGTFTSDYSILLDKKAQKAFIEYLIEGGPSSGAPPPS (Aib2, (2-[2-(2-Amino-ethoxy)-ethoxy]-acetyl)2-(γ-Glu)-CO-(CH2)18-CO2H on K17, C-terminal NH2) [Example 256] = 1.38

Lab note: next binder to report on.
Item under review: XXEGTXTSDYSILLDKKAQXAFIEYLIEGGPSSGAPPPS (D-Tyr1, Aib2, αMeF6, (2-[2-(2-Amino-ethoxy)-ethoxy]-acetyl)2-(γ-Glu)-CO-(CH2)18-CO2H on K17, Aib20, C-terminal NH2) [Example 329] . Reported hGLP1R cAMP EC50 ratio? 0.535

Hey, just so you know, these numbers are from patent US20220048967A1.
